- System: SF-295
- test.summary: NCI tumour cell line growth inhibition, 48 h
Activity calls are given as the source filed them. Rule as the data show it: active = GI50 up to about 1.1 µM and inactive = higher.

| line.notation | GI50 |
| --- | --- |
| O=C1/C(=C/c2ccccc2)CCc2ccc([N+](=O)[O-])cc21 | 33 µM (inactive) |
| CN(CC(N)=O)C(=O)N(CCCl)N=O | > 76.7 µM (inactive) |
| Cc1c(N(C)C)ccc2c(=O)c3cccc(CC(=O)O)c3oc12 | > 100 µM (inactive) |
| C/C(Cl)=N\OC(=O)Nc1ccccc1C(F)(F)F | > 100 µM (inactive) |

* * *

- Tested on: UACC-257
- test.summary: NCI tumour cell line growth inhibition, 48 h
Calls of active or inactive are those of the source. Cut-off read from the data, not from the text of the source: active = GI50 up to about 1.1 µM and inactive = higher.
Items are presented alongside their recorded GI50.

| compound | GI50 |
| --- | --- |
| SC1=C2CCCCCC2=NC2(CCCCCC2)S1 | 11 µM (inactive) |
| COC1(OC)C[C@H](C)[C@@]23O[C@]24C2=CC(=O)C=CC2=N[C@H]3C#C/C=C\C#C[C@]14O | 1.49 µM (inactive) |
| CC1CCC2(OCCO2)[C@]2(C)CC(O)C(=O)C=C12 (some centres undefined) | > 100 µM (inactive) |
| Cc1cc(Br)cc(C)c1NC(=O)C(=O)C(C(=O)c1ccncc1)C1OC(=O)c2ccccc21 (centres undefined) | > 100 µM (inactive) |
| O=C1/C(=C/c2ccccc2)CCc2ccc([N+](=O)[O-])cc21 | 39.5 µM (inactive) |
| CC(=O)OCC1OC(n2c(-c3ccccc3)c(/N=N/c3ccc(C)cc3)c(C)c(C#N)c2=S)C(OC(C)=O)C(OC(C)=O)C1OC(C)=O (centres undefined) | 32.1 µM (inactive) |
| COc1ccc2c(c1)C(=O)CC(C(N)=O)C2 (centres undefined) | > 100 µM (inactive) |
| O=c1c2c3c(sc2nc2n1N=C(c1ccc([N+](=O)[O-])cc1)CS2)CCCC3 | > 100 µM (inactive) |
| CCCCCCCCCC(=O)NC(Cc1ccc(O)cc1)C(=O)NCCCNCCCCNCCCNC(=O)[C@@H](N)CCCN=C(N)N (some centres undefined) | 44.5 µM (inactive) |

* * *

- System: SF-539
- test.summary: NCI tumour cell line growth inhibition, 48 h
Activity calls are given as the source filed them. Cut-off read from the data, not from the text of the source: active = GI50 up to about 1.1 µM and inactive = higher.
This section presents compounds with their documented GI50 values.
parameter: GI50

| compound | observed.result |
| --- | --- |
| CC(=O)O/C=C(/C=C/OC(C)=O)C(C/C=C(\C)C#CC=C(C)C)OC(C)=O (configuration not stated) | 22.8 µM (inactive) |
| C/C1=C\C=C(\C(C)C)CC/C(C(=O)O)=C\CC/C(C)=C/CC1 [NEOCROTOCEMBRANEIC ACID] | 18.5 µM (inactive) |
| OCc1ccc2c(c1)CC1(Cc3ccc(/C=N/O)cc3C1)C2 (configuration not stated) | 2.72 µM (inactive) |
| O=C1c2ccccc2C(=O)c2c1c1cc(O)ccc1n2Cc1ccc(Cl)cc1Cl | 3.97 µM (inactive) |
| C[C@]12C[C@@H](c3ccccc3)Nc3ccccc3N1C(c1ccccc1)=NO2 | 33.4 µM (inactive) |
| CC(=O)C(C(C)=O)=C1CCCC(O)O1 (configuration not stated) | > 100 µM (inactive) |
| Cc1ccc(C(=O)N/N=C2/C(=O)c3c4ccccc4cc4cccc2c34)cc1 | 15.5 µM (inactive) |

* * *

Recorded GI50 by entry
- Test system: HOP-92
- test.summary: NCI tumour cell line growth inhibition, 48 h
Active and inactive are the calls of the source. No stated cut-off is given here; in the data, active = GI50 up to about 1.1 µM and inactive = higher.
parameter: GI50

| molecule | observed.result |
| --- | --- |
| Cc1cc(O)c2c(c1)C(=O)c1c(c(O)cc(O)c1-c1c(O)cc(O)c3c1C(=O)c1cc(C)cc(O)c1C3=O)C2=O [SKYRIN] | 13.1 µM (inactive) |
| COc1ccc(O)c(/C=N/NC(=S)N2CCCCC2)c1 | 5.18 µM (inactive) |
| O=S(=O)(N/C(=N\O)Nc1ccc(Cl)cc1)c1cc2ccccc2o1 | 13.3 µM (inactive) |
| O=C1/C(=C/c2ccccc2)CCc2ccc([N+](=O)[O-])cc21 | 81.5 µM (inactive) |

* * *

- System: OVCAR-5
- test.summary: NCI tumour cell line growth inhibition, 48 h
The source made the active and inactive calls. Rule as the data show it: active = GI50 up to about 1.1 µM and inactive = higher. *1 amine or outer side, *2 acyl side, *3 side chain or, on linkers, in order; H or OH if unused. Where a SMILES comes first, the peptide text is derived from it. [ ]: non-standard residue; d: D form. The star is where a group is joined. ξ: configuration not given here. X43 = CCC(=O)CC(O)CC(C)CC(N[*:1])C(=O)[*:2]; ξLeu(3ξ-OH) = CC(C)C(O)C(N)C(=O)O; ξPro(4ξ-Me) = CC1CNC(C(=O)O)C1; X42 = CCC(C)/C=C/C(=O)*; Aib = CC(C)(N)C(=O)O; X44 = CC(CN(C)C)N*; βAla = NCCC(=O)O
Classes used: active, inactive

| compound | label |
| --- | --- |
| CCOC(=O)Cc1csc(NC(NC(=O)OCC)(C(=O)OCC)C(F)(F)F)n1 (centres undefined) | inactive |
| O=C(O)CCC(NC(=O)c1ccc(Nc2nc3ccc(C(F)(F)F)cc3nc2C(=O)O)cc1)C(=O)O (centres undefined) | inactive |
| CCC(=O)CC(O)CC(C)CC(NC(=O)C1CC(C)CN1C(=O)/C=C/C(C)CC)C(=O)NC(C(=O)NC(C)(C)C(=O)NC(CC(C)C)C(=O)NC(CC(C)C)C(=O)NC(C)(C)C(=O)NC(C)(C)C(=O)NCCC(=O)NC(C)CN(C)C)C(O)C(C)C (centres undefined) (X42-[ξPro(4ξ-Me)][X43][ξLeu(3ξ-OH)][Aib]LL[Aib][Aib][βAla]-X44; configuration not given here) | active |
| CC1=CC(=O)c2cccc(NC3=NCCO3)c21 | inactive |
| C[C@H](NC(=O)C(Cc1ccccc1)(Cc1ccc(O)cn1)NC(=O)c1ccccc1)c1ccccc1 (some centres undefined) | inactive |
| C/C(CCn1[nH]c(=O)ccc1=O)=N\O | inactive |
| O=C(OCc1ccccc1)N(CCCCN(CCCNC(=O)C(F)(F)F)C(=O)OCc1ccccc1)CCCNC(=O)C(F)(F)F | inactive |
| COc1ccc2oc(=N)c(C(=O)Nc3ccccn3)cc2c1 | inactive |
| CC(=O)NC1=C(C)C(=O)c2c(nc3n2CC[C@H]3OC(C)=O)C1=O | inactive |
| O=C1CC(c2c[nH]c3ccccc23)C(=O)N1 (centres undefined) | inactive |
| O=C(NO)C12C3C4C1C1C2C3C41C(=O)NO (centres undefined) | inactive |
| N#Cc1ccsc1Nc1ccccc1[N+](=O)[O-] | inactive |
| O=C(O)CSc1nc2ccccc2[nH]1 | inactive |
| Cc1ccc(P(c2ccc(C)cc2)c2ccc(C)cc2)cc1 | inactive |
| O=C1c2cc3c(cc2CC12Cc1cc4c(cc1C2)CCC4)CCC3 | inactive |
| C[C@]12C[C@@H](c3ccccc3)Nc3ccccc3N1C(c1ccccc1)=NO2 | inactive |
| CSc1nc(NCc2ccccc2)c2cnn(COCCO)c2n1 | inactive |
| NC(CSSCC(N)Cc1ccccc1)Cc1ccccc1 (centres undefined) | inactive |
| S=C(Nc1ccc2cn[nH]c2c1)Nc1ccc2cn[nH]c2c1 | inactive |
| CCCCSC1=N/C(=C\c2ccc(N(C)C)cc2)C(NN)=N1 | inactive |
| CC(=O)C(C(C)=O)=C1CCCC(O)O1 (centres undefined) | inactive |
| COC(=O)c1cc(=O)nc2cc3cccccc3n12 | inactive |
| CC1CCC2(OCCO2)[C@]2(C)CC(O)C(=O)C=C12 (some centres undefined) | inactive |
| C=C1C[C@]23CC[C@@H]4C(CO)(CO)CC(=O)C[C@]4(C)[C@@H]2CC[C@H]1C3 | inactive |

* * *

- System: SW-620
- test.summary: NCI tumour cell line growth inhibition, 48 h
Calls of active or inactive are those of the source. Rule as the data show it: active = GI50 up to about 1.1 µM and inactive = higher.
Entries and their measured GI50 follow.
parameter: GI50

| molecule | parameter | observed.result |
| --- | --- | --- |
| C/C1=C\C=C(\C(C)C)CC/C(C(=O)O)=C\CC/C(C)=C/CC1 [NEOCROTOCEMBRANEIC ACID] | GI50 | 35.8 µM (inactive) |
| CC(=O)OCC12C(=O)C[C@@H](C)C3(CC(c4ccoc4)OC3=O)C1CCC(OC(C)=O)C21CO1 (stereo partly specified) | GI50 | > 100 µM (inactive) |
| CSc1nc2cc(S(=O)(=O)N3CCCCC3)ccc2s1 | GI50 | > 100 µM (inactive) |
| CCCCS(=O)(=O)Nc1ccc(Nc2c3ccccc3nc3ccccc23)c(OC)c1 | GI50 | 0.675 µM (active) |
| COCC1C(=O)c2cc3c(cc2C12C=CC1(C=C2)OCCO1)OCO3 (stereo unspecified) | GI50 | 2.48 µM (inactive) |
| Cc1cn(C2CC(N(O)Cc3ccccc3)C(CO)O2)c(=O)[nH]c1=O (stereo unspecified) | GI50 | > 100 µM (inactive) |
| COc1ccc(C(C2=C(O)COC2=O)c2cc3c(cc2O)OCO3)cc1OC (stereo unspecified) | GI50 | > 100 µM (inactive) |
| O=C(O/N=C1/CCCC/C1=C\c1ccccc1)c1ccc(Cl)cc1 | GI50 | > 100 µM (inactive) |
| O=C1c2cc3c(cc2CC12Cc1cc4c(cc1C2)CCC4)CCC3 | GI50 | > 100 µM (inactive) |
| CCc1[nH]c(=O)c2oc3cc4ccccc4cc3c2c1C(=O)O | GI50 | > 10 µM (inactive) |
| Cc1nn(C(=O)c2ccccc2O)c2c1C(c1ccccc1O)SC(=N)N2 (stereo unspecified) | GI50 | 6.11 µM (inactive) |
| CCN(CC)CCC(=O)Nc1ccc2c(c1)C(=O)c1ccc(NC(=O)CCN(CC)CC)cc1C2=O | GI50 | 2.24 µM (inactive) |
| CC1CCC2(OCCO2)[C@]2(C)CC(O)C(=O)C=C12 (stereo partly specified) | GI50 | > 100 µM (inactive) |
| COC(=O)/C=C/c1ccccc1N=[S@](C)(=O)c1ccc(C)cc1 | GI50 | 8.89 µM (inactive) |
| COc1cccc2c(NNc3ccc(Cl)cc3)c3ccc([N+](=O)[O-])cc3nc12 | GI50 | 13.8 µM (inactive) |
| S=C(Nc1ccc2cn[nH]c2c1)Nc1ccc2cn[nH]c2c1 | GI50 | > 100 µM (inactive) |
| C=COC(=O)N1C2CCCC(Cl)(C(C)=O)C1CC2 (stereo unspecified) | GI50 | > 100 µM (inactive) |
| COc1nc2c(c(=O)[nH]1)N=C(c1ccc(Cl)cc1)CC(c1ccccc1)N2 (stereo unspecified) | GI50 | 44.6 µM (inactive) |
| CC1=C[P+](Cc2ccccc2)(c2ccccc2)CC1 (stereo unspecified) | GI50 | > 100 µM (inactive) |
| NC(CSSCC(N)Cc1ccccc1)Cc1ccccc1 (stereo unspecified) | GI50 | 31.6 µM (inactive) |
| C=C1C(=O)C23C(O)C1CC[C@H]2C12CCCC(C)(COC(C)=O)[C@H]1[C@H](O)[C@]3(O)OC2 (stereo partly specified) | GI50 | 0.519 µM (active) |
| COc1ccc(-c2c(-c3ccccc3)c(C)nc3[nH]c(=S)[nH]c(=S)c23)cc1OC | GI50 | 61.7 µM (inactive) |
| CC(NNC(=O)c1ccncc1)c1ccccc1 (stereo unspecified) | GI50 | > 100 µM (inactive) |
| CC1NCCc2c1[nH]c1cc(O)ccc21 (stereo unspecified) | GI50 | > 100 µM (inactive) |
| CCC(=O)NCC1(c2c[nH]c3ccccc23)SCCS1 | GI50 | > 100 µM (inactive) |
| COc1ccc2oc(=N)c(C(=O)Nc3ccccn3)cc2c1 | GI50 | > 100 µM (inactive) |
| CC1(C)[C@@H](Cn2cnc3c(N)ncnc32)CC[C@@]1(C)CO | GI50 | 82.8 µM (inactive) |
| Brc1nc2c3ccccc3ncn2c1Br | GI50 | 36.6 µM (inactive) |
| N=C1/C(=C/c2ccc(F)cc2)C(=O)N=C2SC=NN12 | GI50 | > 100 µM (inactive) |
| Cc1ccc(S(=O)(=O)N/N=C\c2c3ccccc3[n+](C)c3ccccc23)cc1 | GI50 | 33.8 µM (inactive) |
| COC(=O)c1c2c(cc3c1CC1(Cc4cc5c(c(C=O)c4C1)CCC5)C3)CCC2 (stereo unspecified) | GI50 | 53.2 µM (inactive) |
| O=S(=O)(N/C(=N\O)Nc1ccc(Cl)cc1)c1cc2ccccc2o1 | GI50 | 23.1 µM (inactive) |
| COc1ccc(OC)c2sc(N3C(=O)/C(=C/c4ccc(N(C)C)cc4)N=C3c3ccccc3)nc12 | GI50 | 49.8 µM (inactive) |
| O/N=C1\Nc2ccccc2OCc2cc(Br)c(Br)cc2COc2ccccc2N\C1=N/O | GI50 | 11.8 µM (inactive) |
| OCc1ccc2c(c1)CC1(Cc3ccc(/C=N/O)cc3C1)C2 (stereo unspecified) | GI50 | 1.68 µM (inactive) |
| O=C1[C@H]2ON(c3ccccc3)C(c3ccccc3)[C@H]2C(=O)N1c1ccc(Cc2ccc(N3C(=O)[C@@H]4ON(c5ccccc5)C(c5ccccc5)[C@@H]4C3=O)cc2)cc1 (stereo partly specified) | GI50 | > 100 µM (inactive) |
